# target: Kappa-type opioid receptor (Cavia porcellus)
# Sequence (P41144 whole entry): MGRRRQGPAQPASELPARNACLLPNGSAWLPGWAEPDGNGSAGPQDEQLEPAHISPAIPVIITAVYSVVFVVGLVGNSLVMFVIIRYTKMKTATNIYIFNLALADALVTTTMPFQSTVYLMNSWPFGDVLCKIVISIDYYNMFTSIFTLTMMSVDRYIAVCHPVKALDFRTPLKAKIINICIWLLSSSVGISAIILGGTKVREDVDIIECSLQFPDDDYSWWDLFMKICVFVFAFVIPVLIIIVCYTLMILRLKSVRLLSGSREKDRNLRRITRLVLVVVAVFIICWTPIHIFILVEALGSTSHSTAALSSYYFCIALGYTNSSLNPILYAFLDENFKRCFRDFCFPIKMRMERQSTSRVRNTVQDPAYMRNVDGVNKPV
Entries whose IC50 is below 40 nM take 1 (yes); entries at or above 40 nM take 0 (no).

# smi, cat
records = [
    ("Oc1ccc2c3c1O[C@H]1[C@H](OC[C@@H]4CO4)CC[C@@]4(O)[C@@H](C2)N(CC2CC2)CC[C@]314", "1 (yes)"),
    ("C=C1C[C@@H](CO[C@@H]2CC[C@@]3(O)[C@H]4Cc5ccc(O)c6c5[C@@]3(CCN4CC3CC3)[C@H]2O6)OC1=O", "1 (yes)"),
    ("C=C1C[C@H](CO[C@@H]2CC[C@@]3(OC(C)=O)[C@H]4Cc5ccc(O)c6c5[C@@]3(CCN4CC3CC3)[C@H]2O6)OC1=O", "0 (no)"),
    ("C=C1C[C@@H](CO[C@@H]2CC[C@@]3(OC(C)=O)[C@H]4Cc5ccc(O)c6c5[C@@]3(CCN4CC3CC3)[C@H]2O6)OC1=O", "1 (yes)"),
    ("Oc1ccc2c3c1O[C@H]1[C@H](OC[C@H]4CO4)CC[C@@]4(O)[C@@H](C2)N(CC2CC2)CC[C@]314", "1 (yes)"),
    ("C=C1C[C@H](CO[C@@H]2CC[C@@]3(O)[C@H]4Cc5ccc(O)c6c5[C@@]3(CCN4CC3CC3)[C@H]2O6)OC1=O", "0 (no)"),
]

* * *

# target: Mu-type opioid receptor (Cavia porcellus, UniProt P97266)
# Sequence (P97266 whole entry): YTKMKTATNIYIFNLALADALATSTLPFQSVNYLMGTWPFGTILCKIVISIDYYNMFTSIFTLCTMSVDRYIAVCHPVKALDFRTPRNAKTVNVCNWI
# assayText: inhibition of 1.0 nM [3H]- DAGO binding to guinea pig brain membrane opioid receptor mu
pIC50: −log10 of the molar value.
recordedMetric: pIC50

# smi, target, recordedValue
records = [
    ("C=C1C[C@H](CO[C@@H]2CC[C@@]3(O)[C@H]4Cc5ccc(O)c6c5[C@@]3(CCN4CC3CC3)[C@H]2O6)OC1=O", "Mu-type opioid receptor (Cavia porcellus, UniProt P97266)", 8.38),
    ("C=C1C[C@@H](CO[C@@H]2CC[C@@]3(O)[C@H]4Cc5ccc(O)c6c5[C@@]3(CCN4CC3CC3)[C@H]2O6)OC1=O", "Mu-type opioid receptor (Cavia porcellus, UniProt P97266)", 8.47),
    ("Oc1ccc2c3c1O[C@H]1[C@H](OC[C@@H]4CO4)CC[C@@]4(O)[C@@H](C2)N(CC2CC2)CC[C@]314", "Mu-type opioid receptor (Cavia porcellus, UniProt P97266)", 8.46),
    ("C=C1C[C@H](CO[C@@H]2CC[C@@]3(OC(C)=O)[C@H]4Cc5ccc(O)c6c5[C@@]3(CCN4CC3CC3)[C@H]2O6)OC1=O", "Mu-type opioid receptor (Cavia porcellus, UniProt P97266)", 8.66),
    ("C=C1C[C@@H](CO[C@@H]2CC[C@@]3(OC(C)=O)[C@H]4Cc5ccc(O)c6c5[C@@]3(CCN4CC3CC3)[C@H]2O6)OC1=O", "Mu-type opioid receptor (Cavia porcellus, UniProt P97266)", 8.55),
    ("Oc1ccc2c3c1O[C@H]1[C@H](OC[C@H]4CO4)CC[C@@]4(O)[C@@H](C2)N(CC2CC2)CC[C@]314", "Mu-type opioid receptor (Cavia porcellus, UniProt P97266)", 8.54),
]
